Every entry's value here was drawn from ChEMBL document CHEMBL4043212.

tested on: PC-3; assay: Cytotoxicity against human PC3 cells assessed as inhibition of cell growth incubated for 72 hrs by SRB assay; type: functional; settings: Homo sapiens, PC-3, 72 h
Reported log10 GI50 values for the following compounds.
Log10 applied to GI50; unit prior to transform: µM.

Ask: State the measured log10 GI50 (PC-3) of COc1cccc2c1C(=O)c1c(O)c3c(c(O)c1C2=O)C[C@@](O)(C(=O)CO)C[C@@H]3O[C@H]1C[C@H](N)[C@H](O)[C@H](C)O1 [DOXORUBICIN]
Reply: -1.12

Ask: Provide the reported log10 GI50 (system: PC-3) for COc1ccc(-c2cc(-c3ccc(Br)cc3)nc3cnc4ccccc4c23)cc1
Reply: 0.83

Ask: Give reported log10 GI50 for COc1ccc(-c2cc(-c3cccs3)nc3cnc4ccccc4c23)cc1 (PC-3)
Reply: 0.84

Ask: Report its log10 GI50 with PC-3 as the test system: COc1ccc(-c2cc(-c3ccccc3Cl)nc3cnc4ccccc4c23)cc1
Reply: 0.65

Ask: Fill: log10 GI50 (PC-3) for this compound CCn1cc(-c2cc(-c3ccc(OC)cc3)c3c(cnc4ccccc43)n2)c2ccccc21
Reply: 0.79

Ask: Give PC-3 log10 GI50 for the following compound: COc1ccc(-c2cc(-c3ccc(Cl)cc3)nc3cnc4ccccc4c23)cc1
Reply: 0.18

###

# GI50 per entry
test system: NUGC-3; test: Cytotoxicity against human NUGC3 cells assessed as inhibition of cell growth incubated for 72 hrs by SRB assay; assay type: functional; conditions: Homo sapiens, NUGC-3, 72 h
Numeric only. Scale: µM

A selection of reference data follows.
line_notation: COc1ccc(-c2cc(-c3ccc(Cl)cc3)nc3cnc4ccccc4c23)cc1
target: NUGC-3
GI50 / µM: 2.17

line_notation: COc1ccc(-c2cc(-c3ccccc3Cl)nc3cnc4ccccc4c23)cc1
target: NUGC-3
GI50 / µM: 3

line_notation: COc1ccc(-c2cc(-c3ccccc3)nc3cnc4ccccc4c23)cc1
target: NUGC-3
GI50 / µM: 5.83

Ask: Provide GI50, system NUGC-3, entry COc1ccc(-c2cc(-c3ccc(N(C)C)cc3)nc3cnc4ccccc4c23)cc1
Reply: 1.95

###

Readings of GI50 for the listed molecules
test system: PC-3; experiment: Cytotoxicity against human PC3 cells assessed as inhibition of cell growth incubated for 72 hrs by SRB assay; format: functional; conditions: Homo sapiens, PC-3, 72 h

line_notation: COc1ccc(-c2cc(-c3ccc4ccccc4c3)nc3cnc4ccccc4c23)cc1
result: > 10 µM
//
line_notation: COc1ccc(-c2cc(-c3ccc(N(C)C)cc3)nc3cnc4ccccc4c23)cc1
result: 2.98 µM
//
line_notation: COc1ccc(-c2cc(-c3ccccc3Br)nc3cnc4ccccc4c23)cc1
result: > 10 µM
//
line_notation: CCCCCCn1cc(-c2cc(-c3ccc(OC)cc3)c3c(cnc4ccccc43)n2)c2ccccc21
result: > 10 µM

Ask: Give the value of GI50 reported for the following: COc1ccc(-c2cc(-c3ccc(C(F)(F)F)cc3)nc3cnc4ccccc4c23)cc1
Reply: > 10 µM

Ask: Give the reported GI50 for this molecule. COc1ccc(-c2cc(-c3ccc(OC)cc3)c3c(cnc4ccccc43)n2)cc1
Reply: > 10 µM

Ask: Provide GI50 value for the following molecule: COc1ccc(-c2cc(-c3ccccc3[N+](=O)[O-])nc3cnc4ccccc4c23)cc1
Reply: > 10 µM

###

Quick list: GI50 per entry.
test system: HCT-15; assay: Cytotoxicity against human HCT15 cells assessed as inhibition of cell growth incubated for 72 hrs by SRB assay; type: functional; conditions: Homo sapiens, HCT-15, 72 h
Lab book: enter the figure in µM, no units written.

Observe how each entry below is paired with its result.
line_notation: CCn1cc(-c2cc(-c3ccc(OC)cc3)c3c(cnc4ccccc43)n2)c2ccccc21
target: HCT-15
GI50 (µM): 4.88
--
line_notation: COc1ccc(-c2cc(-c3ccccc3)nc3cnc4ccccc4c23)cc1
target: HCT-15
GI50 (µM): 4.38

Lab note: next compound to report on.
Ask: Report GI50 from HCT-15 testing of COc1ccc(-c2cc(-c3cccs3)nc3cnc4ccccc4c23)cc1
Reply: 7.06

###

test system: PC-3; assay: Cytotoxicity against human PC3 cells assessed as inhibition of cell growth incubated for 72 hrs by SRB assay; format: functional; details: Homo sapiens, PC-3, 72 h
measured_attribute: GI50 (µM)
Give the number; µM is assumed, so skip it.

line_notation: COc1ccc(-c2cc(-c3cccc(C#N)c3)nc3cnc4ccccc4c23)cc1
target: PC-3
measured_attribute: GI50
result: 3.15

--- query ---
Ask: Input COc1ccc(-c2cc(-c3ccccc3)nc3cnc4ccccc4c23)cc1 , output reported GI50.
Reply: 3.07
